Reported values of normalized growth for individual entries
Test: chemical genetic growth profiling, strain panel (AID 1159580);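 also: tested at 20 µM; growth read once vehicle control cultures reached saturation at 30 °C; 1 = growth at the plate median or of vehicle wells; lower values mean less growth of the strain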
Details: S. cerevisiae deletion strains, growth OD, locus YJL115W, strain asf1, stronger effect = lower value
About 2,000 (36%) of roughly 5,500 compounds were called active. Not shown: some 18% with an inconclusive outcome. This is one part of the list.
Experimental Readout: normalized growth

smiles_data=Cc1cc(=O)n(-c2ccccc2)n1C experimental_readout="normalized growth" meas_value=0.994
smiles_data=O=C(OC[C@H]1O[C@H](OC(=O)c2cc(O)c(O)c(OC(=O)c3cc(O)c(O)c(O)c3)c2)[C@H](OC(=O)c2cc(O)c(O)c(OC(=O)c3cc(O)c(O)c(O)c3)c2)[C@@H](OC(=O)c2cc(O)c(O)c(OC(=O)c3cc(O)c(O)c(O)c3)c2)[C@@H]1OC(=O)c1cc(O)c(O)c(OC(=O)c2cc(O)c(O)c(O)c2)c1)c1cc(O)c(O)c(OC(=O)c2cc(O)c(O)c(O)c2)c1 experimental_readout="normalized growth" meas_value=0.979
smiles_data=CC(=O)Oc1cccc2c1C(=O)c1c(OC(C)=O)cc(C(=O)O)cc1C2=O experimental_readout="normalized growth" meas_value=0.939
smiles_data=CC(=O)[O][Hg][c]1ccccc1 experimental_readout="normalized growth" meas_value=0.0743
